In this section, each of the compounds is paired with its reported remaining activity at 10 µM.
# target or system: PLCG2(SH2dom.N-term.) (Homo sapiens, UniProt P16885)
# Construct: SH2dom.N-term. denotes SH2 domain closest to N-terminus of protein; made in house; host or cells: HEK293 (transient transfection, unpurified extract)
# Sequence (P16885 532-635 limits assumed): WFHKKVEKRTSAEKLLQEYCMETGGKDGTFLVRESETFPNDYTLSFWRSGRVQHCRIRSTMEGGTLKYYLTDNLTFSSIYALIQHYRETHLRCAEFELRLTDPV
# experimental protocol: biochemical
# Format: binding
# condition: read-out: percent of DMSO vehicle control
Non-standard residues stand in square brackets, D forms with d. Residues, ends and D or L forms follow the SMILES beside them. *: point of attachment. pY = N[C@@H](Cc1ccc(OP(=O)(O)O)cc1)C(=O)O; Caffeoyl = O=C(/C=C/c1ccc(O)c(O)c1)*
Write the number in % without appending the unit.

Solved entries (count: 2):
{"compound": "NC(=O)CC[C@H](NC(=O)[C@@H]1CC[C@@H]2CCN(C(=O)CCCCCC#Cc3cccc4c3CN(C3CCC(=O)NC3=O)C4=O)C[C@H](NC(=O)c3cc4cc(C(F)(F)P(=O)(O)O)ccc4[nH]3)C(=O)N21)C(=O)NC(c1ccccc1)c1ccccc1 (stereo partly shown) [SD-36]", "target or system": "PLCG2(SH2dom.N-term.) (Homo sapiens, UniProt P16885)", "remaining activity at 10 µM (%)": 73.8}
{"compound": "CC(=O)N1CC[C@H]2CC[C@@H](C(=O)N[C@@H](CCC(N)=O)C(=O)NC(c3ccccc3)c3ccccc3)N2C(=O)[C@@H](NC(=O)c2cc3cc(C(F)(F)P(=O)(O)O)ccc3[nH]2)C1 [SI-109]", "target or system": "PLCG2(SH2dom.N-term.) (Homo sapiens, UniProt P16885)", "remaining activity at 10 µM (%)": 112}

remaining activity at 10 µM measured on CC[C@H](C)[C@H](NC(=O)[C@H](CCC(=O)O)NC(=O)[C@H](CCC(=O)O)NC(=O)[C@H](Cc1ccc(OP(=O)(O)O)cc1)NC(=O)/C=C/c1ccc(O)c(O)c1)C(=O)N[C@@H](CCC(=O)O)C(=O)O [Caffeic acid-pYEEIE] (Caffeoyl-[pY]EEIE-OH) = 1.2

Field remaining activity at 10 µM (entry CC(=O)N[C@@H](Cc1ccc(CP(=O)(O)O)cc1)C(=O)NC1(C(=O)N[C@@H](CC(N)=O)C(=O)NCCCc2c(O)ccc3ccccc23)CCCCC1 [CGP78850] ) reads 87.2
